Listed below: SH2 binding enrichment values for each entry.
molecular target: Grb2 SH2 (UniProt P62993); experiment: SH2 binding enrichment of the phosphorylated peptide, bacterial display (enrichment ratio); higher = better substrate or ligand; peptides without Tyr show the background;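 note: peptide library displayed on the E. coli surface as eCPX fusions, selected cells deep-sequenced, score is each peptide's frequency after selection divided by its frequency in the input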
Sequence (P62993 whole entry, looked up, the tested form may be a part): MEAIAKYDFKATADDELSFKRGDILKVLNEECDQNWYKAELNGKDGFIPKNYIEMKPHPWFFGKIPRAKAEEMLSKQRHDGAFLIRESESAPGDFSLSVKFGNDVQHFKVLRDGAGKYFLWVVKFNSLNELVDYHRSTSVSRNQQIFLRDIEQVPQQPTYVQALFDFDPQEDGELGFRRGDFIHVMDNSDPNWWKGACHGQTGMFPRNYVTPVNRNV
Write the number on its own, no unit after it.

Answered examples (3):
>>> value("QLGLQYSQGLV [EIF2B4_Y214_R209Q]")
0.644
>>> value("STILLYHIMAW [GPR143_Y157]")
0.876
>>> value("PLGPLYASSNT [INSR_Y992_P997T]")
0.914

Alright, here's another sequence for you.
SH2 binding enrichment for MFRVQYNSSVD [LRFN1_Y458_Q455R_YF] ?
0.89
